Taken from patent US20240209089A1.

target_entity: T1, CD8α-Fc fusion protein (human)
T1 construct: also called CD8 α-Fc protein; CD8α-Fc tag antigen
protocol_description: phage ELISA on coated CD8α-Fc

{"binder": "phage clone No. 45 (C45) (VHH) VHH: QVQLVESGGGLVQPGGSLRLSCAASGPIFSINTMGWYRQVPGKQRELVATMHSTGSTNYADSVKGRFTISRDNAKKTVYLQMNSLKPDDTAVYYCHVDDTGWGTVDSWGQGTQVTVSS", "OD450": 2.42}
{"binder": "phage clone No. 61 (S13) (VHH) VHH: QLQLVESGGGLVQPGGSLRLSCVVSGSIFAINTMGWYRQAPGKQRELVATMHSYGSTNYADSVKGRFTISRDNAKKTVYLQMNSLKPADTAVYYCHADDTGWGTVDSWGQGTQVTVSS", "OD450": 1.71}
{"binder": "phage clone No. 71 (S23) (VHH) VHH: QVQLVESGGGLVQPGGSLRLSCAASGSIFSINGMGWYRQAPGKQRELVAAITSGGKTDYLDSVKGRFTISRDSAKNTVALQMNSLKPEDTAVYYCNAYGDVQRGEVRWGQGTQVTVSS", "OD450": 1.62}
{"binder": "phage clone No. 27 (C27) (VHH) VHH: QLQLVESGGGLVQPGGSLRLSCVVSGSIFAINTMGWYRQAPGKQRELVATMHSGGSTNYADSVKGRFTISRDAAPKTVYLQMNSLKPADTAVYYCHADDSGWGTVDSWGQGIQVTVSS", "OD450": 2.74}
{"binder": "phage clone No. 30 (C30) (VHH) VHH: QVQLVESGGGLVQPGGSLRLSCVASGSIFAINTMGWYRQAPGKQRELVADMHSTGSTNYADSVKGRFTISRDNAKKKVYLQMNSLKPDDTAVYYCHVDDRGWGTVDSWGQGTQVTVSS", "OD450": 2.03}
{"binder": "phage clone No. 55 (S7) (VHH) VHH: QLQLVESGGGLVQPGGSLRLSCAASGSIFSINGMGWYRQAPGKQREAVAVITSGGKIDYLDSVKGRFTISRDSAKNTVALQMNSLKPEDTAVYYCNAYGDVRRGEVRWGQGTQVTVSS", "OD450": 1.61}
{"binder": "phage clone No. 29 (C29) (VHH) VHH: QVQLVESGGGLVQAGGSLRLSCVASGFTSDDYVIGWFRQAPGKEREGVSCISSSDGTTNYADSVKGRFTISSDNAKNTVYLQMNSLKPEDTAVYYCAADPMRVCPYSGTYYGILGFGTSGQGTQVTVSS", "OD450": 1.75}
{"binder": "phage clone No. 66 (S18) (VHH) VHH: QLQLVESGGGLVQPGGSLRLSCAASGSIFSINTMGWYRQAPGKQRELVATMTSHGSTNYADSVKGRFTISRDNSKNTVYLQMNSLKLQDTAVYYCNANDMGWGTVDAWGQGTLVTVSS", "OD450": 1.72}
